test system: rodent lifetime carcinogenesis bioassay, tumor incidence TD50; test: carcinogenic potency in animals, long-term in vivo studies, CPDB compilation (AID 1745844); conditions: mouse; strain B6C3F1; females; in feed; site: liver; lesion: hepatocellular adenoma + hepatocellular carcinoma + neoplastic nodule; dosed 103 weeks; study length 111 weeks
Value Kind: TD50 (mg/kg/day)
Supply the numeric figure in mg/kg/day, leaving out any unit text.

Please indicate TD50 recorded for Nc1cc(Cl)c(N)c(Cl)c1 883

###

test system: rodent lifetime carcinogenesis bioassay, tumor incidence TD50; assay: carcinogenic potency in animals, long-term in vivo studies, CPDB compilation (AID 1745844); conditions: hamster; strain Syrian Golden; males; by gavage; site: pancreas; lesion: several types; types named in the paper; dosed 66 weeks; study length 87 weeks
Value Kind: TD50

Please indicate TD50 recorded for CC1CN(N=O)CC(C)O1 (stereo unspecified) 2.78 mg/kg/day

###

tested on: rodent lifetime carcinogenesis bioassay, tumor incidence TD50; experiment: carcinogenic potency in animals, long-term in vivo studies, CPDB compilation (AID 1745844); settings: mouse; strain B6C3F1; males; in feed; site: any site (literature study); lesion: several types; types named in the paper; dosed 78 weeks; study length 78 weeks
Value Kind: TD50 (mg/kg/day)
Supply the numeric figure in mg/kg/day, leaving out any unit text.

Please indicate TD50 recorded for Brc1cc(Br)c(-c2c(Br)c(Br)c(Br)c(Br)c2Br)c(Br)c1Br 2.07

###

test system: rodent lifetime carcinogenesis bioassay, tumor incidence TD50; experiment: carcinogenic potency in animals, long-term in vivo studies, CPDB compilation (AID 1745844); settings: rat; strain Wistar; both sexes; by gavage; site: liver; lesion: several types; types named in the paper; dosed 51 weeks; study length 58 weeks
Value Kind: TD50 (mg/kg/day)
Supply the numeric figure in mg/kg/day, leaving out any unit text.

Please indicate TD50 recorded for CN(N=O)C(=O)Nc1nc2ccccc2s1 11.3

###

test system: rodent lifetime carcinogenesis bioassay, tumor incidence TD50; experiment: carcinogenic potency in animals, long-term in vivo studies, CPDB compilation (AID 1745844); conditions: rat; strain Donryu; males; in drinking water; site: liver; lesion: hepatocellular carcinoma; dosed 41 weeks; study length 91 weeks
Value Kind: TD50

Please indicate TD50 recorded for NC(=O)Cc1c([O-])on[n+]1Cc1ccccc1 4.24 mg/kg/day

###

tested on: rodent lifetime carcinogenesis bioassay, tumor incidence TD50; assay: carcinogenic potency in animals, long-term in vivo studies, CPDB compilation (AID 1745844); details: mouse; strain ICR/Jcl; males; in feed; site: any site (literature study); lesion: several types; types named in the paper; dosed 102 weeks; study length 106 weeks
Active and inactive are the calls of the source. How the calls were made is not given here.
Value Kind: TD50

Please indicate TD50 recorded for CCCCOC(=O)c1ccc(O)cc1 5240 mg/kg/day (inactive)

###

system: rodent lifetime carcinogenesis bioassay, tumor incidence TD50; test: carcinogenic potency in animals, long-term in vivo studies, CPDB compilation (AID 1745844); settings: mouse; strain Charles River CD1; females; by gavage; site: liver; lesion: several types; types named in the paper; dosed 92 weeks; study length 92 weeks
Value Kind: TD50

Please indicate TD50 recorded for CC[C@H](C)C(=O)O[C@H]1C[C@@H](C)C=C2C=C[C@H](C)[C@H](CC[C@@H]3C[C@@H](O)CC(=O)O3)[C@H]21 623 mg/kg/day

###

system: rodent lifetime carcinogenesis bioassay, tumor incidence TD50; experiment: carcinogenic potency in animals, long-term in vivo studies, CPDB compilation (AID 1745844); conditions: rat; strain Fischer 344; males; by gavage; site: forestomach; lesion: squamous-cell carcinoma + squamous-cell papilloma; dosed 94 weeks; study length 104 weeks
Value Kind: TD50

* CC(C)=CCl | 41.6 mg/kg/day

Next:
Please indicate TD50 recorded for ClCC(Cl)CCl 1.15 mg/kg/day

###

system: rodent lifetime carcinogenesis bioassay, tumor incidence TD50; test: carcinogenic potency in animals, long-term in vivo studies, CPDB compilation (AID 1745844); settings: mouse; strain Swiss albino; males; in drinking water; site: seminal vesicle; lesion: adenoma; dosed 82 weeks; study length 82 weeks
Calls of active or inactive are those of the source. No rule for the calls is given here.
Value Kind: TD50

Please indicate TD50 recorded for CN(N)C=O 20.7 mg/kg/day (inactive)

###

tested on: rodent lifetime carcinogenesis bioassay, tumor incidence TD50; assay: carcinogenic potency in animals, long-term in vivo studies, CPDB compilation (AID 1745844); settings: mouse; strain B6C3F1; males; inhaled; site: all sites; lesion: histiocytic sarcoma + malignant lymphoma, mixed type + malignant lymphoma, lymphocytic type + malignant lymphoma; dosed 13 weeks; study length 104 weeks
Value Kind: TD50 (mg/kg/day)
Supply the numeric figure in mg/kg/day, leaving out any unit text.

Please indicate TD50 recorded for C=CC=C 26.2

###

test system: rodent lifetime carcinogenesis bioassay, tumor incidence TD50; experiment: carcinogenic potency in animals, long-term in vivo studies, CPDB compilation (AID 1745844); conditions: mouse; strain B6C3F1; males; by gavage; site: forestomach + liver + lung; lesion: squamous-cell carcinoma + squamous-cell papilloma + hepatocellular adenoma + hepatoblastoma + hepatocellular carcinoma + alveolar/; dosed 103 weeks; study length 104 weeks
Value Kind: TD50 (mg/kg/day)
Supply the numeric figure in mg/kg/day, leaving out any unit text.

Please indicate TD50 recorded for c1ccc2occc2c1 23.9

###

system: rodent lifetime carcinogenesis bioassay, tumor incidence TD50; assay: carcinogenic potency in animals, long-term in vivo studies, CPDB compilation (AID 1745844); conditions: rat; strain Fischer 344; females; in drinking water; site: thyroid gland; lesion: follicular-cell carcinoma; dosed 98 weeks; study length 104 weeks
Value Kind: TD50
Remember to quote the unit after the number.

Please indicate TD50 recorded for Cc1ccc(S(=O)(=O)Oc2ccc(N=Nc3ccc(-c4ccc(N=Nc5c(O)ccc6cc(S(=O)(=O)O)cc(S(=O)(=O)O)c56)c(C)c4)cc3C)cc2)cc1 68.9 mg/kg/day

###

test system: rodent lifetime carcinogenesis bioassay, tumor incidence TD50; assay: carcinogenic potency in animals, long-term in vivo studies, CPDB compilation (AID 1745844); details: rat; strain Osborne-Mendel; males; by gavage; site: kidney; lesion: tubular-cell adenoma + tubular-cell adenocarcinoma; dosed 103 weeks; study length 104 weeks
Value Kind: TD50

Please report the measured TD50 for ClC=C(Cl)Cl tested on rodent lifetime carcinogenesis bioassay, tumor incidence TD50. 628 mg/kg/day

###

test system: rodent lifetime carcinogenesis bioassay, tumor incidence TD50; test: carcinogenic potency in animals, long-term in vivo studies, CPDB compilation (AID 1745844); conditions: mouse; strain C3H/HeN-MTV-/Nctr (MTV-); females; in feed; site: mammary gland; lesion: several types; types named in the paper; dosed 125 weeks; study length 125 weeks
Value Kind: TD50

Please indicate TD50 recorded for CC/C(=C(/CC)c1ccc(O)cc1)c1ccc(O)cc1 0.0872 mg/kg/day

###

system: rodent lifetime carcinogenesis bioassay, tumor incidence TD50; experiment: carcinogenic potency in animals, long-term in vivo studies, CPDB compilation (AID 1745844); conditions: rat; strain Fischer 344; females; by gavage; site: pituitary gland, anterior; lesion: adenoma, NOS; dosed 103 weeks; study length 104 weeks
Value Kind: TD50

Please indicate TD50 recorded for S=c1[nH]c2ccccc2s1 343 mg/kg/day

###

test system: rodent lifetime carcinogenesis bioassay, tumor incidence TD50; assay: carcinogenic potency in animals, long-term in vivo studies, CPDB compilation (AID 1745844); settings: hamster; strain Syrian Golden; males; in drinking water; site: forestomach; lesion: papilloma; dosed 103 weeks; study length 103 weeks
Value Kind: TD50

Please indicate TD50 recorded for CCOC(N)=O 64.2 mg/kg/day

###

system: rodent lifetime carcinogenesis bioassay, tumor incidence TD50; experiment: carcinogenic potency in animals, long-term in vivo studies, CPDB compilation (AID 1745844); conditions: rat; strain F344/DuCrj; females; in feed; site: any site (literature study); lesion: several types; types named in the paper; dosed 104 weeks; study length 108 weeks
The source made the active and inactive calls. How the calls were made is not given here.
Value Kind: TD50

Please report the measured TD50 for C=C1C[C@@]23CC[C@H]4[C@@](C)(CCC[C@@]4(C)C(=O)O[C@@H]4O[C@H](CO)[C@@H](O)[C@H](O)[C@H]4O)[C@@H]2CC[C@]1(O[C@@H]1O[C@H](CO)[C@@H](O)[C@H](O)[C@H]1O[C@@H]1O[C@H](CO)[C@@H](O)[C@H](O)[C@H]1O)C3 tested on rodent lifetime carcinogenesis bioassay, tumor incidence TD50. 34400 mg/kg/day (inactive)

###

test system: rodent lifetime carcinogenesis bioassay, tumor incidence TD50; assay: carcinogenic potency in animals, long-term in vivo studies, CPDB compilation (AID 1745844); conditions: rat; strain F344/DuCrj; males; in drinking water; site: liver; lesion: hepatocellular carcinoma; dosed 104 weeks; study length 105 weeks
Value Kind: TD50

Please indicate TD50 recorded for C1COCCO1 676 mg/kg/day

###

tested on: rodent lifetime carcinogenesis bioassay, tumor incidence TD50; assay: carcinogenic potency in animals, long-term in vivo studies, CPDB compilation (AID 1745844); details: rat; strain Fischer 344; males; in drinking water; site: testis; lesion: interstitial-cell adenoma, bilateral + interstitial-cell adenoma; dosed 97 weeks; study length 97 weeks
Value Kind: TD50 (mg/kg/day)
Supply the numeric figure in mg/kg/day, leaving out any unit text.

Please indicate TD50 recorded for COc1cc(-c2ccc(N=Nc3c(S(=O)(=O)O)cc4cc(S(=O)(=O)O)cc(N)c4c3O)c(OC)c2)ccc1N=Nc1c(S(=O)(=O)O)cc2cc(S(=O)(=O)O)cc(N)c2c1O 12.9

All figures here come from PubChem BioAssay AID1745844.
